From: paper PMC12416549

# target.of.assay: T1, TNFR1 (Homo sapiens, UniProt P19438)
# T1 chain: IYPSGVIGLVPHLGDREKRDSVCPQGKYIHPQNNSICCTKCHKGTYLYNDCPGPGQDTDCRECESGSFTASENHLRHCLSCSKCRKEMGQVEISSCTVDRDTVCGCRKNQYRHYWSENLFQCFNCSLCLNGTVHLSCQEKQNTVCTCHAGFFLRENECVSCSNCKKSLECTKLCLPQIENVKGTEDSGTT
# method.description: yeast display SC50
measure.name: apparent Kd (screen) (nM)

| binder | apparent Kd (screen) [nM] |
| --- | --- |
| K73R (designed binder) SMEEEVEKAAKEYEKKKKEAIEKHLEKLKAKDKEAAERFLKELEEAAKEYAKDEAKTMSEEEAKRRAKKYKERVLLSELSEEEQKEIKEAEEKLVRTILKYVEEAAK | 9.41 |

I = E91N (designed binder) SMEEEVEKAAKEYEKKKKEAIEKHLEKLKAKDKEAAERFLKELEEAAKEYAKDEAKTMSEEEAKRRAKKYKEKVLLSELSEEEQKEIKEANEKLVRTILKYVEEAAK
II = E5M (designed binder) SMEEMVEKAAKEYEKKKKEAIEKHLEKLKAKDKEAAERFLKELEEAAKEYAKDEAKTMSEEEAKRRAKKYKEKVLLSELSEEEQKEIKEAEEKLVRTILKYVEEAAK
III = E92C (designed binder) SMEEEVEKAAKEYEKKKKEAIEKHLEKLKAKDKEAAERFLKELEEAAKEYAKDEAKTMSEEEAKRRAKKYKEKVLLSELSEEEQKEIKEAECKLVRTILKYVEEAAK
IV = E72T (designed binder) SMEEEVEKAAKEYEKKKKEAIEKHLEKLKAKDKEAAERFLKELEEAAKEYAKDEAKTMSEEEAKRRAKKYKTKVLLSELSEEEQKEIKEAEEKLVRTILKYVEEAAK
V = A36N (designed binder) SMEEEVEKAAKEYEKKKKEAIEKHLEKLKAKDKEANERFLKELEEAAKEYAKDEAKTMSEEEAKRRAKKYKEKVLLSELSEEEQKEIKEAEEKLVRTILKYVEEAAK
// ranking: key=apparent Kd (screen), reverse=True # format: label list in the order the request specifies III, V, IV, I, II

1 = A30N (designed binder) SMEEEVEKAAKEYEKKKKEAIEKHLEKLKNKDKEAAERFLKELEEAAKEYAKDEAKTMSEEEAKRRAKKYKEKVLLSELSEEEQKEIKEAEEKLVRTILKYVEEAAK
2 = A20H (designed binder) SMEEEVEKAAKEYEKKKKEHIEKHLEKLKAKDKEAAERFLKELEEAAKEYAKDEAKTMSEEEAKRRAKKYKEKVLLSELSEEEQKEIKEAEEKLVRTILKYVEEAAK
3 = L25Q (designed binder) SMEEEVEKAAKEYEKKKKEAIEKHQEKLKAKDKEAAERFLKELEEAAKEYAKDEAKTMSEEEAKRRAKKYKEKVLLSELSEEEQKEIKEAEEKLVRTILKYVEEAAK
4 = E60N (designed binder) SMEEEVEKAAKEYEKKKKEAIEKHLEKLKAKDKEAAERFLKELEEAAKEYAKDEAKTMSNEEAKRRAKKYKEKVLLSELSEEEQKEIKEAEEKLVRTILKYVEEAAK
// ranking: key=apparent Kd (screen), reverse=True # format: label list in the order the request specifies 4, 3, 1, 2
(4: 3.63 nM, 3: 1.54 nM, 1: 0.79 nM, 2: 0.446 nM)

I = K27L (designed binder) SMEEEVEKAAKEYEKKKKEAIEKHLELLKAKDKEAAERFLKELEEAAKEYAKDEAKTMSEEEAKRRAKKYKEKVLLSELSEEEQKEIKEAEEKLVRTILKYVEEAAK
II = T97A (designed binder) SMEEEVEKAAKEYEKKKKEAIEKHLEKLKAKDKEAAERFLKELEEAAKEYAKDEAKTMSEEEAKRRAKKYKEKVLLSELSEEEQKEIKEAEEKLVRAILKYVEEAAK
III = E62M (designed binder) SMEEEVEKAAKEYEKKKKEAIEKHLEKLKAKDKEAAERFLKELEEAAKEYAKDEAKTMSEEMAKRRAKKYKEKVLLSELSEEEQKEIKEAEEKLVRTILKYVEEAAK
Write the entries in order, lowest recorded apparent Kd (screen) first. # format: label list in the order the request specifies III, I, II

A = K68E (designed binder) SMEEEVEKAAKEYEKKKKEAIEKHLEKLKAKDKEAAERFLKELEEAAKEYAKDEAKTMSEEEAKRRAEKYKEKVLLSELSEEEQKEIKEAEEKLVRTILKYVEEAAK
B = K33W (designed binder) SMEEEVEKAAKEYEKKKKEAIEKHLEKLKAKDWEAAERFLKELEEAAKEYAKDEAKTMSEEEAKRRAKKYKEKVLLSELSEEEQKEIKEAEEKLVRTILKYVEEAAK
// which entry has the larger apparent Kd (screen) value, A or B ? When you have decided, please share the label of that item. A
(A: 1.4 nM, B: 0.869 nM)
